These data points were gathered from patent US20250360145A1.

Reported pIC50 values follow for various compounds
# STUDY SYSTEM: c-Kit (Homo sapiens (Human))
# Sequence (P10721 26-976): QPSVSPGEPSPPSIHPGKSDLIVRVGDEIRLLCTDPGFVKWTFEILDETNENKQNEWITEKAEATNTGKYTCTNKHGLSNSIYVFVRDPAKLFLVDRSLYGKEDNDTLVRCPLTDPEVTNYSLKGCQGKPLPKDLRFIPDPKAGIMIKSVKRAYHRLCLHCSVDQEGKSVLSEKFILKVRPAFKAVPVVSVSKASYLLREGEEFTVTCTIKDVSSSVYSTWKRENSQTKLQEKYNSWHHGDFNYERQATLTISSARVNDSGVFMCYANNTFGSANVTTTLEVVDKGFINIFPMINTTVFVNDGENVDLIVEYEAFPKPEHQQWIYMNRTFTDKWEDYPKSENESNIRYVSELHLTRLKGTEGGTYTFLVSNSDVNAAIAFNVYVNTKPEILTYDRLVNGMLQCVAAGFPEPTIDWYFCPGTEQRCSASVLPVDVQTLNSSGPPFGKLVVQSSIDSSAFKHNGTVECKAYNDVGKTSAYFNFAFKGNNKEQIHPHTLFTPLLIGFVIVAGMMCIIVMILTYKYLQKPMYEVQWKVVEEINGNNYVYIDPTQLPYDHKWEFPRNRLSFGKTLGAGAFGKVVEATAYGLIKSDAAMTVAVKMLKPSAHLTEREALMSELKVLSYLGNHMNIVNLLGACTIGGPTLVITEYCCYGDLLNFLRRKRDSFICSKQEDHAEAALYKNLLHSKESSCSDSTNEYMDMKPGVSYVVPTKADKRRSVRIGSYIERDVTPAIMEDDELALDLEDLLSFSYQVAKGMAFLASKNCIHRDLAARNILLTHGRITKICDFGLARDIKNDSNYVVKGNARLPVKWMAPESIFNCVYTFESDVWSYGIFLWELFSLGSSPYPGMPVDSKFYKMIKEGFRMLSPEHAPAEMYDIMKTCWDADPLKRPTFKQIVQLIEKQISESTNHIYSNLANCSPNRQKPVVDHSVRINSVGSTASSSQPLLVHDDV
# METHOD NOTES: Biochemical HTRF kinase assay, c-Kit;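 note: enzyme reaction with substrate and ATP run in 384-well plates for 1 hour at room temperature, kinase activity detected by HTRF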
# COND: recombinant human protein; read-out: cKit IC50
pIC50: −log10 of the molar value.
RESULT TYPE: pIC50

[[record]]
compound = "COc1cnc2c(Cc3cnc(OCc4ccc([C@H]5CC5(F)F)cn4)c(OC)c3)ccnc2c1 (stereo in doubt) [Example 80]"
result = 6.67

[[record]]
compound = "[2H]C([2H])([2H])Oc1cnc2c(Cc3cnc(OCc4ccc(OC)cn4)c(OC)c3)ccnc2c1"
result = "< 6.00"

[[record]]
compound = "COc1ccc(COc2ncc(Cc3ccnc4cc(OC)cnc34)cc2OC)nc1"
result = 6.06

[[record]]
compound = "COc1cnc2c(Cc3cnc(OCc4cc(C)n(C)n4)c(OC)c3)ccnc2c1"
result = "< 6.00"

[[record]]
compound = "COc1cnc2c(Cc3cnc(OCc4cc5n(n4)C[C@@H](OC)C5)c(OC)c3)ccnc2c1"
result = "< 6.00"

[[record]]
compound = "COc1cnc2c(Cc3cnc(OCc4cc5n(n4)C[C@H](OC)C5)c(OC)c3)ccnc2c1"
result = "< 6.00"

[[record]]
compound = "COc1cnc2c(Cc3cnc(OCc4cc(C(C)C)no4)c(OC)c3)ccnc2c1"
result = "< 6.00"

[[record]]
compound = "COc1ccc(COc2ncc(Cc3ccnc4cc(N(C)C)cnc34)cc2OC)nc1"
result = 6.06

[[record]]
compound = "COc1cnc2c(Cc3cnc(OCc4cc5n(n4)CC4CC54)c(OC)c3)ccnc2c1 (stereo not drawn)"
result = 6.15

[[record]]
compound = "COc1cnc2c(Cc3cnc(OCc4ccc(OC(F)F)cn4)c(OC)c3)ccnc2c1"
result = "< 6.00"

[[record]]
compound = "COc1cnc2c(Cc3cnc(OCc4cc(C)n(C5COC5)n4)c(OC)c3)ccnc2c1"
result = "< 6.00"

[[record]]
compound = "COc1ccc(COc2ncc(Cc3ccnc4cccnc34)cc2OC)nc1"
result = "< 6.00"

[[record]]
compound = "COc1cnc2c(Cc3cnc(OCc4cc5n(n4)CCC5)c(OC)c3)ccnc2c1"
result = "< 6.00"

[[record]]
compound = "COc1cnc2c(Cc3cnc(OCc4ccc(C5CC5)cn4)c(OC)c3)ccnc2c1"
result = "< 6.00"

[[record]]
compound = "COc1cnc2c(Cc3cnc(OCc4cc(C(C)C)n(C)n4)c(OC)c3)ccnc2c1"
result = "< 6.00"

[[record]]
compound = "[2H]C([2H])([2H])Oc1cc(Cc2ccnc3cc(OC)cnc23)cnc1OCc1ccc(OC)cn1"
result = "< 6.00"

[[record]]
compound = "[2H]C([2H])([2H])Oc1ccc(COc2ncc(Cc3ccnc4cc(OC)cnc34)cc2OC)nc1"
result = "< 6.00"

[[record]]
compound = "COc1cnc2c(Cc3cnc(OCc4cc5n(n4)C[C@H](F)C5)c(OC)c3)ccnc2c1"
result = "< 6.00"

[[record]]
compound = "COc1ccc(COc2ncc(Cc3ccnc4cc(N5CCN(C)CC5)cnc34)cc2OC)nc1"
result = "< 6.00"

[[record]]
compound = "COc1cnc2c(Cc3cnc(OCc4cnc5c(c4)OCCN5C)c(OC)c3)ccnc2c1"
result = "< 6.00"

[[record]]
compound = "COc1cnc2c(Cc3cnc(OCc4ccc([C@H]5CC5(F)F)cn4)c(OC)c3)ccnc2c1 (stereo in doubt) [Example 81]"
result = "< 6.00"

[[record]]
compound = "COc1cnc2c(Cc3cnc(OCc4ccc(C)cn4)c(OC)c3)ccnc2c1"
result = 6.11

[[record]]
compound = "COc1cnc2c(Cc3cnc(OCc4ccc(C5CC5(F)F)cn4)c(OC)c3)ccnc2c1 (stereo not drawn)"
result = 6.02

[[record]]
compound = "COc1cnc2c(Cc3cnc(OCc4cc5n(n4)CCOC5)c(OC)c3)ccnc2c1"
result = "< 6.00"

